Taken from ChEMBL document CHEMBL1152519.

Target: Glutamate receptor ionotropic, kainate 2 (Rattus norvegicus) (UniProt P42260)
Sequence (P42260 whole entry): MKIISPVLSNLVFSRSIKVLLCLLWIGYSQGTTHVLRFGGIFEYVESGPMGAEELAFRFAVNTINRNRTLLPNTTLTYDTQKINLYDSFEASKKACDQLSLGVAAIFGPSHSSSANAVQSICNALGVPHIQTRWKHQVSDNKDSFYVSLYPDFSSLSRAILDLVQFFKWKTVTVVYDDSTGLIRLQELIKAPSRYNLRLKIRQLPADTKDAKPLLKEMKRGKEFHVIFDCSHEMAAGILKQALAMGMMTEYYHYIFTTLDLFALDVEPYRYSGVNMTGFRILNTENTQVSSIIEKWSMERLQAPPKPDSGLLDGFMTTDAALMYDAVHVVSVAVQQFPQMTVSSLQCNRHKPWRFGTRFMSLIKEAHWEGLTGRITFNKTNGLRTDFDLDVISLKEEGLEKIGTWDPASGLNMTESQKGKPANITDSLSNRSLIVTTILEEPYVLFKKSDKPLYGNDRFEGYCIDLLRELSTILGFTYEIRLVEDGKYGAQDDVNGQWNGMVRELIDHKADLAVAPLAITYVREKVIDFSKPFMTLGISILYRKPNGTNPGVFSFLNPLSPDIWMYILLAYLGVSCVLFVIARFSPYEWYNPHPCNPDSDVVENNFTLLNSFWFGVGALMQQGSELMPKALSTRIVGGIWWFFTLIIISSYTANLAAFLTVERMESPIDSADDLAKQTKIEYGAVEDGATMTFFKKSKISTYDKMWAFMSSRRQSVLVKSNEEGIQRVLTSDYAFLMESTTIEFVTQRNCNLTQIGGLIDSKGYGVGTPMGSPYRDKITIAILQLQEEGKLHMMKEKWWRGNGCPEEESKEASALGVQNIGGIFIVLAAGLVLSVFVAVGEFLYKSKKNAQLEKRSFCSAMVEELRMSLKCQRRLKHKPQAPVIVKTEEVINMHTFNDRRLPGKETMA
Test: Antagonist activity at rat recombinant GluR6 expressed in Xenopus laevis oocytes assessed as inhibition of concanavalin A/glutamate-induced current at 3 uM by two electrode voltage clamp method relative to control
Assay type: functional, cell-based
Details: Oocyte
Each record here notes measured % response.
Write the number in % without appending the unit.

// known answers, use as guide
CS(=O)(=O)Nc1ccc(CCC(=O)NNC(=O)Nc2ccc(Cl)c(Cl)c2)cc1 99
CS(=O)(=O)Nc1ccc(CCC(=O)NN2C(=O)c3cc(Cl)c(Cl)cc3C2=O)cc1 100
CS(=O)(=O)Nc1ccc(OCCNCCNc2ccc(Cl)c(Cl)c2)cc1 98
CS(=O)(=O)Nc1ccc(CCC(=O)N2CCN(c3ccc(Cl)c(Cl)c3)CC2)cc1 101
CS(=O)(=O)Nc1ccc(OCC(=O)N2CCN(c3ccc(Cl)c(Cl)c3)CC2)cc1 101
CS(=O)(=O)Nc1ccc(OCC(=O)NCCOc2ccc(Cl)c(Cl)c2)cc1 100
CS(=O)(=O)Nc1ccc(CCCNCCNc2ccc(Cl)c(Cl)c2)cc1 99
CS(=O)(=O)Nc1ccc(OCC(=O)NCCCNc2ccc(Cl)c(Cl)c2)cc1 90
CS(=O)(=O)Nc1ccc(CCCC(=O)NCCc2ccc(Cl)c(Cl)c2)cc1 100
CS(=O)(=O)Nc1ccc(OCC(=O)NCCSc2ccc(Cl)c(Cl)c2)cc1 94

Below: the item to evaluate.
Input: Requested field: % response. Item: CS(=O)(=O)Nc1ccc(CCCN2CCN(c3ccc(Cl)c(Cl)c3)C2=O)cc1
Output: 99

----------
Each record here notes measured Activity.
Biological target: Adrenergic receptor alpha-1 (Rattus norvegicus) (UniProt P15823+P23944+P43140)
Test: Displacement of [3H]prazosin from alpha1 adrenergic receptor in Wistar rat brain membrane at 3 uM
Format: cell membranes
# output: numeric value plus its unit

// known answers, use as guide
CS(=O)(=O)Nc1ccc(CCCNCCNc2ccc(Cl)c(Cl)c2)cc1 52%
CS(=O)(=O)Nc1ccc(OCC(=O)NCCSc2ccc(Cl)c(Cl)c2)cc1 5%
CS(=O)(=O)Nc1ccc(CCC(=O)NC/C=C/c2ccc(Cl)c(Cl)c2)cc1 16%

Input: Requested field: Activity. Item: CS(=O)(=O)Nc1ccc(OCC(=O)NC/C=C/c2ccc(Cl)c(Cl)c2)cc1
Output: 22%

Input: Requested field: Activity. Item: CS(=O)(=O)Nc1ccc(OCCNCC(=O)Nc2ccc(Cl)c(Cl)c2)cc1
Output: 21%

Input: Requested field: Activity. Item: CS(=O)(=O)Nc1ccc(OCCNCCNc2ccc(Cl)c(Cl)c2)cc1
Output: 49%

Input: Requested field: Activity. Item: CS(=O)(=O)Nc1ccc(CCC(=O)NCCCNc2ccc(Cl)c(Cl)c2)cc1
Output: 19%

----------
Biological target: Glutamate NMDA receptor; Grin1/Grin2b (Rattus norvegicus, UniProt P35439+Q00960)
Sequence (Q00960 whole entry, other chains not shown): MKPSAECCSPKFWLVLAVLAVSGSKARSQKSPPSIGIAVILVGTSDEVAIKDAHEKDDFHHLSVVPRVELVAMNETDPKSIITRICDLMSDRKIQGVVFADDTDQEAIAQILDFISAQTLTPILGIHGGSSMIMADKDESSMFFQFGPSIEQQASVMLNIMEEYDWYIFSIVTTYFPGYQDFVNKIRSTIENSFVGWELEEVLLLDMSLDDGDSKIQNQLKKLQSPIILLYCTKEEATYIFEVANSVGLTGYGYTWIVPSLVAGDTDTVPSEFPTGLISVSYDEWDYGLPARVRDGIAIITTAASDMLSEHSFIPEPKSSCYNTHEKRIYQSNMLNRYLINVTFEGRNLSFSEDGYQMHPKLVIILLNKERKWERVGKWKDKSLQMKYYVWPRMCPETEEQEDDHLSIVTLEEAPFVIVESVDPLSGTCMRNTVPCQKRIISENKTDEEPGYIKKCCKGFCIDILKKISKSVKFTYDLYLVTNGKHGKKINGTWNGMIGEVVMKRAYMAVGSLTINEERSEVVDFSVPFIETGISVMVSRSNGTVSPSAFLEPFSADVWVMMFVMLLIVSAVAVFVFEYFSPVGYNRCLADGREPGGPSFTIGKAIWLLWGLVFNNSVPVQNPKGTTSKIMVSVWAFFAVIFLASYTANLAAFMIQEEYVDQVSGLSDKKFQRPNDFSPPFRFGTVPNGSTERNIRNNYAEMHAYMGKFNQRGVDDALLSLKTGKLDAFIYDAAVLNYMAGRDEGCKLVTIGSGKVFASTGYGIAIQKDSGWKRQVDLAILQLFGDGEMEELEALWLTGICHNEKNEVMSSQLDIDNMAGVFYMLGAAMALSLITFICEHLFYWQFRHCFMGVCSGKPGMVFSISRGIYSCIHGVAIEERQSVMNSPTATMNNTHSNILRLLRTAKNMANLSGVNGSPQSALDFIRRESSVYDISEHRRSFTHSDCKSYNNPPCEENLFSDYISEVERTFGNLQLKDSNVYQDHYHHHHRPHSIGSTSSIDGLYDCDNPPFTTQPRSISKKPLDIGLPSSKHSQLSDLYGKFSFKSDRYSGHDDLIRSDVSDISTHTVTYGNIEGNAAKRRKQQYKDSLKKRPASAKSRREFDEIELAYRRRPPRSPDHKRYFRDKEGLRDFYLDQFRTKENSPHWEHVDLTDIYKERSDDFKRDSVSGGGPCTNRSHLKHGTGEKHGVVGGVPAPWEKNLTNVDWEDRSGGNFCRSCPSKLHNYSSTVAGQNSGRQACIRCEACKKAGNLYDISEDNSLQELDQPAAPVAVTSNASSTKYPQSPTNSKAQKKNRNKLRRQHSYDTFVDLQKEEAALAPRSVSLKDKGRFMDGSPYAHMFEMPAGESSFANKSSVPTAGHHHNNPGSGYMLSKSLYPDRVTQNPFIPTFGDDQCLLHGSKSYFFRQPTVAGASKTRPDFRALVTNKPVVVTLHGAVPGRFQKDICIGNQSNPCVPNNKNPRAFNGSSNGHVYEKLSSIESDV
Experiment: Antagonist activity at rat recombinant NR1/NR2B receptor expressed in frog oocytes assessed as inhibition of glutamate/glycine-induced current by two electrode voltage clamp method
Type: functional, cell-based, Oocyte
Readout label: pIC50
# pIC50 is unitless: minus log10 of the molar concentration; print number only

Input: Requested field: pIC50. Item: CS(=O)(=O)Nc1ccc(OCC(=O)NCCNc2ccc(Cl)c(Cl)c2)cc1
Output: 7.24

----------
Biological target: UniProt P19490
Sequence (P19490 whole entry): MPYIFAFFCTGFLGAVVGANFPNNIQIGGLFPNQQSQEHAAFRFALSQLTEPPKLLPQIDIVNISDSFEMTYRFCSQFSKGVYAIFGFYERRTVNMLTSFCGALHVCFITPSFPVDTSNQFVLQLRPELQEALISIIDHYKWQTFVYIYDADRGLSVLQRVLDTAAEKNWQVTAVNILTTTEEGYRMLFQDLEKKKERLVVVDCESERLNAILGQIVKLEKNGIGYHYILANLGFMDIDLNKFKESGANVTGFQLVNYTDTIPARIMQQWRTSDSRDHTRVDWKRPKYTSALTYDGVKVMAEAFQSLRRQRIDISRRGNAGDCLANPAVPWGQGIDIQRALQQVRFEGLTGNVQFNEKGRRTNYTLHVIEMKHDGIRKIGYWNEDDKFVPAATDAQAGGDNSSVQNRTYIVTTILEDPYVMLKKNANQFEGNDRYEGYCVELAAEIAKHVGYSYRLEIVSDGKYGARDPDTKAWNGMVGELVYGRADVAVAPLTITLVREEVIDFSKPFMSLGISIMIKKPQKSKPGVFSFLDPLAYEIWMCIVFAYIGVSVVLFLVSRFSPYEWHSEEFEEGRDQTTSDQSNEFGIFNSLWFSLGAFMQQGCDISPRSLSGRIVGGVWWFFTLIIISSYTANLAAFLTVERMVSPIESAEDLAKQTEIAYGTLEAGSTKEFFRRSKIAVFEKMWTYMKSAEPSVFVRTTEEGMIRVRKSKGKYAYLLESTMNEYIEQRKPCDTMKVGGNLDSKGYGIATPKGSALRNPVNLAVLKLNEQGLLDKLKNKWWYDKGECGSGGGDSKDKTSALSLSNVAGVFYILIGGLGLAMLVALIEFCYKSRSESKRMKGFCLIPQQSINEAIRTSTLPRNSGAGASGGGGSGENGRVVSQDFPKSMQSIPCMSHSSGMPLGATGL
Experiment: Antagonist activity at rat recombinant GluR1 expressed in Xenopus laevis oocytes assessed as inhibition of glutamate-induced current at 3 uM by two electrode voltage clamp method relative to control
Assay type: functional, cell-based
Details: Oocyte
Each record here notes measured % response.
Write the number in % without appending the unit.

// known answers, use as guide
CS(=O)(=O)Nc1ccc(CCC(=O)NN2C(=O)c3cc(Cl)c(Cl)cc3C2=O)cc1 98
CS(=O)(=O)Nc1ccc(CCC(=O)NNC(=S)Nc2ccc(Cl)c(Cl)c2)cc1 100
CS(=O)(=O)Nc1ccc(CCC(=O)NNC(=O)c2ccc(Cl)c(Cl)c2)cc1 100
CS(=O)(=O)Nc1ccc(CCC(=O)NCCCNc2ccc(Cl)c(Cl)c2)cc1 100
CS(=O)(=O)Nc1ccc(OCC(=O)NCCCNc2ccc(Cl)c(Cl)c2)cc1 103
CS(=O)(=O)Nc1ccc(CCC(=O)NNC(=O)Nc2ccc(Cl)c(Cl)c2)cc1 100

Input: Requested field: % response. Item: CS(=O)(=O)Nc1ccc(OCC(=O)NCCSc2ccc(Cl)c(Cl)c2)cc1
Output: 101

Input: Requested field: % response. Item: CS(=O)(=O)Nc1ccc(OCC(=O)NC/C=C/c2ccc(Cl)c(Cl)c2)cc1
Output: 101

Input: Requested field: % response. Item: CS(=O)(=O)Nc1ccc(CCC(=O)N2CCN(c3ccc(Cl)c(Cl)c3)CC2)cc1
Output: 104

Input: Requested field: % response. Item: CS(=O)(=O)Nc1ccc(OCCNCC(=O)Nc2ccc(Cl)c(Cl)c2)cc1
Output: 97

Input: Requested field: % response. Item: CS(=O)(=O)Nc1ccc(CCC(=O)NNCCc2ccc(Cl)c(Cl)c2)cc1
Output: 100

Input: Requested field: % response. Item: CS(=O)(=O)Nc1ccc(CCCC(=O)NCCc2ccc(Cl)c(Cl)c2)cc1
Output: 102

Input: Requested field: % response. Item: CS(=O)(=O)Nc1ccc(CCCN2CCN(c3ccc(Cl)c(Cl)c3)C2=O)cc1
Output: 100

----------
Biological target: Glutamate NMDA receptor; Grin1/Grin2a (Rattus norvegicus) (UniProt P35439+Q00959)
Assay: Antagonist activity at rat recombinant NR1/NR2A receptor expressed in Xenopus laevis oocytes assessed as inhibition of glutamate/glycine-induced current at 3 uM by two electrode voltage clamp method relative to control
Assay type: functional, cell-based
Settings: Oocyte
Readout label: % response (%)
Write the number in % without appending the unit.

// known answers, use as guide
CS(=O)(=O)Nc1ccc(CCC(=O)N2CCN(c3ccc(Cl)c(Cl)c3)CC2)cc1 103
CS(=O)(=O)Nc1ccc(OCC(=O)N2CCN(c3ccc(Cl)c(Cl)c3)CC2)cc1 89
CS(=O)(=O)Nc1ccc(CCC(=O)NN2C(=O)c3cc(Cl)c(Cl)cc3C2=O)cc1 101
CS(=O)(=O)Nc1ccc(OCC(=O)NCCOc2ccc(Cl)c(Cl)c2)cc1 97
CS(=O)(=O)Nc1ccc(OCC(=O)NCCCc2ccc(Cl)c(Cl)c2)cc1 99

Below: the item to evaluate.
Input: What reported % response corresponds to CS(=O)(=O)Nc1ccc(CCCN2CCN(c3ccc(Cl)c(Cl)c3)C2=O)cc1 on Glutamate NMDA receptor; Grin1/Grin2a (Rattus norvegicus) (UniProt P35439+Q00959)?
Output: 96

----------
Molecular target: hERG (KCNH2) (Homo sapiens)
Sequence (Q12809 whole entry): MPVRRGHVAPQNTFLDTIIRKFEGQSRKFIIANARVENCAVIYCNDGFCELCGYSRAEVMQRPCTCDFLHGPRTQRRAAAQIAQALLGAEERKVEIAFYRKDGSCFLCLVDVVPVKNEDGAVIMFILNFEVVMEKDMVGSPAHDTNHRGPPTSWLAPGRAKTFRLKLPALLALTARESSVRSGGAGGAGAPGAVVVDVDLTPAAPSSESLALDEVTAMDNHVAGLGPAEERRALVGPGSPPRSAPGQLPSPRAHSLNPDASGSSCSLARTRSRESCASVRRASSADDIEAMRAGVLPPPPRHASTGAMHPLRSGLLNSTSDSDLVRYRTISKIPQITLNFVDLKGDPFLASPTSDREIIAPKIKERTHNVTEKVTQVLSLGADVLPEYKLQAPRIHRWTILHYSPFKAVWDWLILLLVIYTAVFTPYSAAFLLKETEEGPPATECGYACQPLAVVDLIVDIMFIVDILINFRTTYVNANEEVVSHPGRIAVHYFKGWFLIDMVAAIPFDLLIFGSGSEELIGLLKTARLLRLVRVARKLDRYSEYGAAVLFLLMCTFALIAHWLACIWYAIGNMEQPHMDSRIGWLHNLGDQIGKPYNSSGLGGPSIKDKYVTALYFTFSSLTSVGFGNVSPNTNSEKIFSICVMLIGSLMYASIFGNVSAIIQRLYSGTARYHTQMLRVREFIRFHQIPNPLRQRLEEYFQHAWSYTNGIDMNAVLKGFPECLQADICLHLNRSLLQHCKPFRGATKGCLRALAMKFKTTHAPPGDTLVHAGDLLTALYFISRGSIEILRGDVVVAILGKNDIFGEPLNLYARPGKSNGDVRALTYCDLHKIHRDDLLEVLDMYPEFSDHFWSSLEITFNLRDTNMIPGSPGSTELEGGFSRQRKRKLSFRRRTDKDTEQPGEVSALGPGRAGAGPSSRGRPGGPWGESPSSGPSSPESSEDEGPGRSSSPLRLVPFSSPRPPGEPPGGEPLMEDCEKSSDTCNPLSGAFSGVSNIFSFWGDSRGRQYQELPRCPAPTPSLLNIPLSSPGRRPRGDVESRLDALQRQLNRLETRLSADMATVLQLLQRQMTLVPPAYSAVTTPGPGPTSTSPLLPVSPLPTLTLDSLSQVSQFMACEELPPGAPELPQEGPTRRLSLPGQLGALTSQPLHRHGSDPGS
Assay: Displacement of [3H]astemizole from human recombinant ERG expressed in HEK293 cells at 10 uM
Assay type: cell-based
Details: HEK293 cells expressing human recombinant ERG, probe [3H]astemizole, read-out: Activity
Readout label: inhibition at 10 µM (%)
Write the number in % without appending the unit.

CS(=O)(=O)Nc1ccc(OCC(=O)N2CCN(c3ccc(Cl)c(Cl)c3)CC2)cc1 93
CS(=O)(=O)Nc1ccc(OCCNCCNc2ccc(Cl)c(Cl)c2)cc1 97
CS(=O)(=O)Nc1ccc(OCC(=O)NCCOc2ccc(Cl)c(Cl)c2)cc1 42
CS(=O)(=O)Nc1ccc(CCC(=O)NCCCNc2ccc(Cl)c(Cl)c2)cc1 83
CS(=O)(=O)Nc1ccc(CCC(=O)NNC(=S)Nc2ccc(Cl)c(Cl)c2)cc1 13

Input: What reported inhibition at 10 µM corresponds to CS(=O)(=O)Nc1ccc(OCCN2CCN(c3ccc(Cl)c(Cl)c3)C2=O)cc1 on hERG (KCNH2) (Homo sapiens)?
Output: 71

Input: What reported inhibition at 10 µM corresponds to CS(=O)(=O)Nc1ccc(OCC(=O)NC/C=C/c2ccc(Cl)c(Cl)c2)cc1 on hERG (KCNH2) (Homo sapiens)?
Output: 74

Input: What reported inhibition at 10 µM corresponds to CS(=O)(=O)Nc1ccc(CCC(=O)NNC(=O)Nc2ccc(Cl)c(Cl)c2)cc1 on hERG (KCNH2) (Homo sapiens)?
Output: 3

Input: What reported inhibition at 10 µM corresponds to CS(=O)(=O)Nc1ccc(OCCNCC(=O)Nc2ccc(Cl)c(Cl)c2)cc1 on hERG (KCNH2) (Homo sapiens)?
Output: 67

Input: What reported inhibition at 10 µM corresponds to CS(=O)(=O)Nc1ccc(CCCN2CCN(c3ccc(Cl)c(Cl)c3)C2=O)cc1 on hERG (KCNH2) (Homo sapiens)?
Output: 81

Input: What reported inhibition at 10 µM corresponds to CS(=O)(=O)Nc1ccc(OCC(=O)NCCSc2ccc(Cl)c(Cl)c2)cc1 on hERG (KCNH2) (Homo sapiens)?
Output: 75

Input: What reported inhibition at 10 µM corresponds to CS(=O)(=O)Nc1ccc(OCC(=O)NCCNc2ccc(Cl)c(Cl)c2)cc1 on hERG (KCNH2) (Homo sapiens)?
Output: 43
